Biological target: T1, human ROR2 expressed on the cell surface (human, UniProt Q01974 34-943)
T1 construct: Endogenous ROR2 of human tumour cell lines; also called cell surface ROR2; ROR2 on tumour cell lines
T1 sequence (Q01974 34-943 limits assumed): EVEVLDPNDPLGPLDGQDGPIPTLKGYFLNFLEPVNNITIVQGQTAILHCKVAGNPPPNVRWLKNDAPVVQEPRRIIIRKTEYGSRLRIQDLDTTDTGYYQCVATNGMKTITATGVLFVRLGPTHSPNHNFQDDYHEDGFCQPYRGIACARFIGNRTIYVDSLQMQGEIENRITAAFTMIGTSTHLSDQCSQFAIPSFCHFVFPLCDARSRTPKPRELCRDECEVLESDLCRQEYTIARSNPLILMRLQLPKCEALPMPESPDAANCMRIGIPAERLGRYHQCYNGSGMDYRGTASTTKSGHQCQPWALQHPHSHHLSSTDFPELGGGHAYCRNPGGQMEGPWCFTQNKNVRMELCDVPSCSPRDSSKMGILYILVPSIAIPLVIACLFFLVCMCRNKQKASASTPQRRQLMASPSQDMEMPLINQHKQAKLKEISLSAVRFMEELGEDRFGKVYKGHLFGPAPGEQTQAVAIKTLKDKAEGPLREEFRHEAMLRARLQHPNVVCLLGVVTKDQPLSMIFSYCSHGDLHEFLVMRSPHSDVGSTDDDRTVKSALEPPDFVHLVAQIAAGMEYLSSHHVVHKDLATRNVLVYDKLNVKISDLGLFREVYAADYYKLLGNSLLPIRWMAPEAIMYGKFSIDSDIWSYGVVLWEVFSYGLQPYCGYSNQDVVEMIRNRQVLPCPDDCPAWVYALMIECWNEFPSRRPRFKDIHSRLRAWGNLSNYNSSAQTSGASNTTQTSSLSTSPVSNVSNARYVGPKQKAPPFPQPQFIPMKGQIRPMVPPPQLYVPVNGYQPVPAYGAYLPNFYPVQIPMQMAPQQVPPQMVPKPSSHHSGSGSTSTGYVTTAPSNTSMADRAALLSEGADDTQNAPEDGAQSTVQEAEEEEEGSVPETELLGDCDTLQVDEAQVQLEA
Experiment: flow cytometry, MCF7-Luc cells (breast CA)
Parameters: unit not given here
Procedure: Human tumour cell lines were authenticated using short tandem repeat (STR) analysis. They were cultured in RPMI1640 (Cellgro) supplemented with 10% fetal bovine serum (FBS, Life Technologies) at 37° C. in a 5% CO₂ humidified incubator. They were harvested, washed in PBS and reacted with ROR2-IgG at 1 ug/10⁶ tumour cells on ice for an hour. #901-IgG was used as a negative control at the same dose. […] Staining was analyzed on a FACSCalibur (BD Biosciences). […]
propertyName: binding intensity
No unit in the answer, only the number.

These recorded examples may help you get a feel for the data.
1. ROR2-23 full length human IgG1 antibody (antibody, V domains shown, The light chain of clone 023 is labelled kappa; also called clone #23; clone #023 IgG1) VH: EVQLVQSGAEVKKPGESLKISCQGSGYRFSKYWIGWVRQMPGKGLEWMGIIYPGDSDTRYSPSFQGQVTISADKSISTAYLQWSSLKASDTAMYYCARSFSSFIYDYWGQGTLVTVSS VL: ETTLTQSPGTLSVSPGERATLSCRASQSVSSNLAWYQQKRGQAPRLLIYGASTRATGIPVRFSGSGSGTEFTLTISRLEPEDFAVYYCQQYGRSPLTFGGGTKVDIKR = 111
2. ROR2-241 full length human IgG1 antibody (antibody, V domains shown) VH: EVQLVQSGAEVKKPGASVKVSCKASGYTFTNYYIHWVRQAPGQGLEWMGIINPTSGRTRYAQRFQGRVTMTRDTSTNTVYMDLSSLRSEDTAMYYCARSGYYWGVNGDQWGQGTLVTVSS VL: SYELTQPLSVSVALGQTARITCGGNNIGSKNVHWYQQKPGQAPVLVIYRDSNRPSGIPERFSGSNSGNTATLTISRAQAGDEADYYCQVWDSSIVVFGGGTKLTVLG = 42

Provide measured binding intensity value, entry: ROR2-240 full length human IgG1 antibody (antibody, V domains shown, also called clone #240 IgG1) VH: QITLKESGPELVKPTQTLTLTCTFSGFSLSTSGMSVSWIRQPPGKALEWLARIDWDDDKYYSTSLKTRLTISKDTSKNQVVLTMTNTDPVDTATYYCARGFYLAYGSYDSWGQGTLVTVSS VL: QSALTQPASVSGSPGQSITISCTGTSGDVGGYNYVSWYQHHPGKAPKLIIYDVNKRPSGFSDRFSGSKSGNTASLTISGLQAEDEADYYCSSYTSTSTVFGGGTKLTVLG
39

Provide measured binding intensity value, entry: ROR2-90 full length human IgG1 antibody (antibody, V domains shown, also called clone #90; antibody #90) VH: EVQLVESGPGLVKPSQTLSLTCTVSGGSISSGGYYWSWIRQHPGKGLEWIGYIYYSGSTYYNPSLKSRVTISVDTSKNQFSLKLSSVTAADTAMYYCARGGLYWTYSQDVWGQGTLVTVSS VL: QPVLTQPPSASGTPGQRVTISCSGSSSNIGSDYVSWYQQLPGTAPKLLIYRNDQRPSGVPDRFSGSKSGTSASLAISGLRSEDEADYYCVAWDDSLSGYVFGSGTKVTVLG
190

Provide measured binding intensity value, entry: ROR2-27 full length human IgG1 antibody (antibody, V domains shown, also called clone #27; clone #027 IgG1) VH: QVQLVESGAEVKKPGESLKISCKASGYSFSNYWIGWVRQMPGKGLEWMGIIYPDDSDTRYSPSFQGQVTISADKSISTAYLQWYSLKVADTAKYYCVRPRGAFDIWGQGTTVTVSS VL: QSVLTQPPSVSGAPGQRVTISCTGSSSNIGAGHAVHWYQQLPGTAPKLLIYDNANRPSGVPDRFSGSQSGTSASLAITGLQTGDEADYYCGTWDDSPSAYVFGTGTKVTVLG
74

Data origin, for the record: patent US20180127503A1
